# System: primary cortico-hippocampal neuron cultures
# Assay remarks: MTT in primary screening
# Assay conditions: Primary Screening; table sorted by Aβ1-40
Structures can show the parent of a compound that is named as a salt.
Property: MTT (% of ctl)

Known MTT (% of ctl) results, listed for orientation:
| Compound | Tested on | MTT (% of ctl) |
| --- | --- | --- |
| CN1C(C)(C)CCCC1(C)C [Pempidine Tartrate] | primary cortico-hippocampal neuron cultures | 91.3 % of ctl |
| COC(=O)[C@H]1[C@H]2C[C@@H]3c4[nH]c5cc(OC)ccc5c4CCN3C[C@H]2C[C@@H](OC(=O)c2cc(OC)c(OC)c(OC)c2)[C@@H]1OC [Reserpine] | primary cortico-hippocampal neuron cultures | 87.2 % of ctl |
| COC(=O)[C@@H]1[C@H]2C[C@H]3c4[nH]c5ccccc5c4CCN3C[C@@H]2CC[C@@H]1O [Yohimbine Hydrochloride] | primary cortico-hippocampal neuron cultures | 82.7 % of ctl |

Output MTT (% of ctl) of CO[C@]12C[C@@H](COC(=O)c3cncc(Br)c3)CN(C)[C@@H]1Cc1cn(C)c3cccc2c13 [Nicergoline]
99.8 % of ctl

Give a short answer stating reported MTT (% of ctl) for CC(CCc1ccccc1)NCC(O)c1ccc(O)c(C(N)=O)c1 (centres unmarked) [Labetalol Hydrochloride] .
93.0 % of ctl

Tell me measured MTT (% of ctl) for O=C(O)C(O)C(O)C(=O)O.OCc1cccnc1 (centres unmarked) [Nicotinyl Tartrate] please.
92.7 % of ctl

Return value of MTT (% of ctl) for input CC(COc1ccccc1)N(CCCl)Cc1ccccc1 (centres unmarked) [Phenoxybenzamine Hydrochloride] , no commentary.
72.8 % of ctl

Dear colleague, please send me the reported MTT (% of ctl) for CCCCC1=NC2(CCCC2)C(=O)N1Cc1ccc(-c2ccccc2-c2nnn[nH]2)cc1 [Irbesartan] when you can.
98.9 % of ctl

###

# System: Aβ1-42
# Assay remarks: Aβ1-42 content in conditioned medium of primary cortico-hippocampal neuron cultures from Tg2576 mice (ELISA; primary and secondary dose-response screening)
# Format: cell-based, mouse
# Assay conditions: primary screening, drug 100 μM, Tg2576 neuron cultures; table sorted by Aβ1-42
Property: Ab1-42 (% of ctl)

| Molecule | Ab1-42 (% of ctl) |
| --- | --- |
| CC(=O)O[C@H]1C[C@H](O[C@H]2[C@@H](O)C[C@H](O[C@H]3[C@@H](O)C[C@H](O[C@H]4CC[C@@]5(C)[C@H](CC[C@@H]6[C@@H]5C[C@@H](O)[C@]5(C)[C@@H](C7=CC(=O)OC7)CC[C@]65O)C4)O[C@@H]3C)O[C@@H]2C)O[C@H](C)[C@H]1O[C@@H]1O[C@H](CO)[C@@H](O)[C@H](O)[C@H]1O [Lanatoside C] | 100.3 % of ctl |

Specify Ab1-42 (% of ctl) for CCOc1nc2cccc(C(=O)OC(C)OC(=O)OC3CCCCC3)c2n1Cc1ccc(-c2ccccc2-c2nn[nH]n2)cc1 (stereo not drawn) , system Aβ1-42.
18.1 % of ctl

Provide Ab1-42 (% of ctl), system Aβ1-42, entry NC(N)=O
104.9 % of ctl

###

# Test system: primary cortico-hippocampal neuron cultures
# Assay remarks: MTT in primary screening
# Assay conditions: primary screening; table sorted by Aβ1-42
Where a name gives a salt, the structure may show the parent alone.
Property: MTT (% of ctl)

Below: 8 compounds and their reported MTT (% of ctl).
| Compound | MTT (% of ctl) |
| --- | --- |
| CC1=NS(=O)(=O)c2cc(Cl)ccc2N1 [Diazoxide] | 97.8 % of ctl |
| Nc1nc(N)c2nc(-c3ccccc3)c(N)nc2n1 [Triamterene] | 93.8 % of ctl |
| NS(=O)(=O)c1cc2c(cc1C(F)(F)F)NC(Cc1ccccc1)NS2(=O)=O (stereo not shown) [Bendrofumethiazide] | 88.9 % of ctl |
| Nc1cc(N2CCCCC2)nc(N)[n+]1[O-] [Minoxidil] | 98.5 % of ctl |
| CC[C@]12CCCN3CCc4c(n(c5ccccc45)[C@@](O)(C(=O)OC)C1)[C@@H]32 [Vincamine] | 98.5 % of ctl |
| Cc1cccc(C)c1OCC(C)N (stereo not shown) [Mexiletine Hydrochloride] | 95.6 % of ctl |
| COc1ccccc1OCCNCC(O)COc1cccc2[nH]c3ccccc3c12 (stereo not shown) [Carvedilol] | 66.7 % of ctl |
| C#CCN(C)Cc1ccccc1 [Pargyline Hydrochloride] | 86.4 % of ctl |

Read off the recorded MTT (% of ctl) for CNC1(C)C2CCC(C2)C1(C)C (stereo not shown) [Mecamylamine Hydrochloride]
114.9 % of ctl

Using known records, supply MTT (% of ctl) for CCCNCC(O)COc1ccccc1C(=O)CCc1ccccc1 (stereo not shown) [Propafenone Hydrochloride]
95.2 % of ctl

Supply measured MTT (% of ctl) of O=C(O)C(O)C(O)C(=O)O.OCc1cccnc1 (stereo not shown) [Nicotinyl Tartrate] in your reply.
92.7 % of ctl

Specify MTT (% of ctl) for CC(=O)S[C@@H]1CC2=CC(=O)CC[C@]2(C)[C@H]2CC[C@@]3(C)[C@@H](CC[C@@]34CCC(=O)O4)[C@H]12 [Spironolactone] and stop.
117.0 % of ctl

Return MTT (% of ctl) (reported value) for this compound: O=C(O)c1cccnc1 [Niacin]
61.0 % of ctl

Please report MTT (% of ctl) for the following compound: C[C@H](CS)C(=O)N1CCC[C@H]1C(=O)O [Captopril]
62.3 % of ctl

Quickly give me recorded MTT (% of ctl) for CC(=O)CCCCn1c(=O)c2c(ncn2C)n(C)c1=O [Pentoxifylline]
91.1 % of ctl

State, in one line, measured MTT (% of ctl) of COC(=O)[C@H]1[C@H]2C[C@H]3c4[nH]c5ccccc5c4CCN3C[C@H]2CC[C@@H]1O [Rauwolscine Hydrochloride]
98.0 % of ctl

Look up MTT (% of ctl) of COc1ccc(OC)c(C(O)CNC(=O)CN)c1 (stereo not shown) [Midodrine Hydrochloride] and report it.
87.8 % of ctl

Determine from records and report MTT (% of ctl) for NS(=O)(=O)c1cc2c(cc1Cl)NC(C1CC3C=CC1C3)NS2(=O)=O (stereo not shown) [Cyclothiazide]
97.7 % of ctl

Output measured MTT (% of ctl) for this item: COc1cc2nc(N(C)CCCNC(=O)C3CCCO3)nc(N)c2cc1OC (stereo not shown) [Alfluzosin]
91.8 % of ctl
